assay: protease stability score; higher = more stable; yeast display proteolysis, trypsin and chymotrypsin;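 also: relative to predicted unfolded state with 0 unfolded-like and 1 meaning tenfold more protease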
Observed property: protease stability score

Q) For DEEEKEATHYLELFWKLKETGDWDELHRLLDPNVRLRINGKDVHGMERVTEEHLKRMKEIRIRHYHLDELRVQGDFVHIDVRVNGEIDGKRNMIEFHFHARKVDGRWFLHEVRIR , what is its reported protease stability score?
A) 1.79

Q) Record: DRERRHEEQLYRDLIHAWFTGDEEWLRKYADPHVRVEIGDKLRHGMEWLAKMREDVHRHLGIDHIHIHDHYFFDGRVHMDFRINIGDKHHNLHLHIVNVDGKVRSFRFEIH
A) 1.09

Q) Record: HEENKELEDLLRVWMELVETGDEEELLKLADPDWRLDINGRRIHGRDKVLTWLREHREKLGVDHRHLFLKDVRTVNGRVDANGENEVQVNGKRIVIDIRFHLVVINGRIHMISLRLH
A) 1.15

* * *

So I've got a bunch of sequences here, and I need their protease stability score values.
experiment: protease stability score; higher = more stable; yeast display proteolysis, trypsin and chymotrypsin;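 also: relative to predicted unfolded state with 0 unfolded-like and 1 meaning tenfold more protease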

Q) For SEERDHARRALNKMWKAIETGDEDTFEKLMDPDVRIEIGDKEIHGRELYVKIWQEMRFHIRRTRITDSKTFNGRVDIEFEEDFEIIVGDKIERYDYRVTFHSLKVNGRWEHSSMRLH , what is its reported protease stability score?
A) 0.202

Q) Record: DETTHELEWFTKIVAHAIETGDFEVMLNLIDPNVRVQEIIDGREIEFHGWHAFEHWMRKFKNITIIIRHVHHQGNKVEIEGEIDFNGKRRDVRIRFHVWNGRVKEFRHEER
A) 1.52

Q) Record: DEDERESHNFMHEMEKAAKTGDWRKFEEMFDPDVRTIIGDKEDHGWEVAVKLFLDLGIKVLKVKRVDVVDGRLELEMELHFNGVIRKVTLRTKKVNGRWQVKELRFE
A) 1.57

Q) Record: DENHEIVKRALEIIVVALLTGDFDTLTELFDPEVRIQVGDKHLHGREDFWKWLKELITRADHNDFKVESIEVQGDKMVIDGEMIIHYNGREHRYKTEVIILKIDGRWVVKRIHYE
A) 1.65

Q) Record: DERDELVRQLMEWLVRAYITGDFETLKNLFDPNAKVRVNGRELIGMETFWQLLWHLRFTDHKIDSVEMQGEKVTVNVTLFIDVNGREETKKSHLIFVVVNGRLKSMDFRYE
A) 1.66

* * *

assay: protease stability score; higher = more stable; yeast display proteolysis, trypsin and chymotrypsin;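 also: relative to predicted unfolded state with 0 unfolded-like and 1 meaning tenfold more protease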
Observed property: protease stability score

Q) For SEDTRIAEELWRIMMDADRTGDEDRSKEMIDPNTQFIFNGRDVIGREVWAELFLRIDHIHLRDVEIHDSEVFNGKIHIDGHVDQEIRIGDKTLVEKVKVELIVLKINGKWLLKEVRFH , what is its reported protease stability score?
A) 1.35

Q) Record: DEEDEHFEEVLRRTRHVWKTGDWRRLHELFDPNTRIHVNGRDVIGREEASRIIYEMLRQADHFHYRIRRFEIQGDKIHSEIEVIIIVNGRLIRLDTHVVAIKVNGRWVIESEEIR
A) 1.48

Q) Record: DESEKIMEDATKEHVKSFETGDFHTLLRQLDPHVRNNVNGVELHGREDVIRVLRELMERFPNVRVHIERIEVIGDKVNIKVNWNFNGVIVDVNIIAAKINGRWVNREMEVR
A) 0.966

Q) Record: DEETEILKKVVKEMRKIMHTGDEHEIHRYLDPNARLDVDGREVHGREALLEFLRKFKGMTVHIDDVEDIGDKIFIDHELRFDGVTRKSEIISNKINGRWHVESVHIR
A) 0.357

Q) Record: SEEKKFLEKAHREILHLYKTGDEDRMSELADPDVRMRLVINGQERHHHGREEFERVFREMLDRFGVKHVEDEDSDLVNGQVHIKGTERFNGKEVRFNIIIVWVDGRVHMLSVEYR
A) 0.264
